- System: NBD1
- protocol.notes: Aggregation analysis of NBD1 thermal stability by differential static light scattering (DSLS)
- Assay type: binding, Human
- settings: compound at 100 μM; ΔTagg versus DMSO control
quantity.name: DSLS NBD1/3D Human Stability delta-T (° C.) @ 100 (μM)

# count of solved cases: 6
>  <molecule>
O=C(Cc1c(Oc2cccc(-c3nnc(Cc4ccccc4)[nH]3)c2)ccc2[nH]ccc12)NS(=O)(=O)C1CC1 [Example 12]

>  <result.value>
A (T ≥8° C.)

$$$$
>  <molecule>
CC(O)(c1ccccc1)c1cnc(-c2cccc(Oc3ccc4[nH]ccc4n3)c2)[nH]1 (stereo not shown) [Example 53]

>  <result.value>
B (4-8° C.)

$$$$
>  <molecule>
CC(=O)NCc1c(Oc2cccc(-c3ncc(C(O)c4ccccc4)[nH]3)c2)ccc2[nH]ccc12 (stereo not shown) [Example 18]

>  <result.value>
A (T ≥8° C.)

$$$$
>  <molecule>
CC(O)(c1ccccc1)c1c[nH]c(-c2cc(Oc3c(F)cc4[nH]ccc4c3S(C)(=N)=O)ccc2F)n1 (stereo not shown) [Example 6]

>  <result.value>
A (T ≥8° C.)

$$$$
>  <molecule>
CC(O)(c1ccccc1)c1c[nH]c(-c2cc(Oc3c(F)cc4[nH]ccc4c3CC3SC(=O)NC3=O)ccc2F)n1 (stereo not shown) [Example 1]

>  <result.value>
A (T ≥8° C.)

$$$$
>  <molecule>
NC(=O)Cc1c(Oc2cccc(-c3nnc(Cc4ccccc4)[nH]3)c2)ccc2[nH]ccc12 [Example 51]

>  <result.value>
B (4-8° C.)

$$$$

With NBD1 as the test system, CN(C)CCNC(c1ccccc1)c1c[nH]c(-c2cccc(Oc3ccc4[nH]ccc4n3)c2)n1 (stereo not shown) [Example 54] showed DSLS NBD1/3D Human Stability delta-T (° C.) @ 100 (μM) of B (4-8° C.)

Summary: CC(C)(c1ccccc1)c1cnc(-c2cc(Oc3c(F)cc4[nH]ccc4c3CCS(N)(=O)=O)ccc2F)[nH]1 [Example 75] , NBD1, DSLS NBD1/3D Human Stability delta-T (° C.) @ 100 (μM) = B (4-8° C.)

O=S(=O)(c1ccccc1)c1cnc(-c2cccc(Oc3ccc4[nH]ccc4c3)c2)[nH]1 [Example 32] on NBD1 gives DSLS NBD1/3D Human Stability delta-T (° C.) @ 100 (μM) = B (4-8° C.)

Record NC(c1ccccc1)c1nnc(-c2cccc(Oc3ccc4[nH]ccc4n3)c2)[nH]1 (stereo not shown) [Example 17] / NBD1, DSLS NBD1/3D Human Stability delta-T (° C.) @ 100 (μM) recorded as B (4-8° C.)

###

- System: NBD1
- protocol.notes: Aggregation analysis of NBD1 thermal stability by differential static light scattering (DSLS)
- Assay type: binding, Human
- settings: compound at 100 μM; ΔTagg versus DMSO control
quantity.name: DSLS NBD1/3D Human Stability delta-T (° C.) @ 100 (μM)

>  <smiles.code>
O=C(c1cccc(-c2nnc(Cc3ccccc3)[nH]2)c1)c1ccc2[nH]ccc2c1

>  <result.value>
C (≤4° C.)

$$$$
>  <smiles.code>
c1ccc(Cc2coc(-c3cccc(Oc4ccc5[nH]ccc5c4)c3)n2)cc1

>  <result.value>
C (≤4° C.)

$$$$

###

- System: NBD1
- protocol.notes: Aggregation analysis of NBD1 thermal stability by differential static light scattering (DSLS)
- Type: binding, Human
- settings: compound at 100 μM; ΔTagg versus DMSO control
quantity.name: DSLS NBD1/3D Human Stability delta-T (° C.) @ 100 (μM)

Answered examples (5):
>  <compound>
COCC[S+]([O-])c1c(Oc2cccc(-c3ncc(C(C)(O)c4ccccc4)[nH]3)c2)c(F)cc2[nH]ccc12 (stereo not shown)

>  <result.value>
B (4-8° C.)

$$$$
>  <compound>
[O-][S+](c1ccccc1)c1cnc(-c2cccc(Oc3ccc4[nH]ccc4c3)c2)[nH]1 (stereo not shown)

>  <result.value>
B (4-8° C.)

$$$$
>  <compound>
CS(=O)(=O)c1c(Oc2cccc(-c3ncc(C(O)c4ccccc4)[nH]3)c2)c(F)cc2[nH]ccc12 (stereo not shown)

>  <result.value>
A (T ≥8° C.)

$$$$
>  <compound>
c1ccc(Cc2nnc(-c3cncc(Oc4ccc5[nH]ccc5c4)c3)[nH]2)cc1

>  <result.value>
C (≤4° C.)

$$$$
>  <compound>
CC(C)(c1ccccc1)c1cnc(-c2cc(Oc3c(F)cc4[nH]ccc4c3CCC(=O)O)ccc2F)[nH]1

>  <result.value>
A (T ≥8° C.)

$$$$

Item: CS(=O)(=O)c1c(Oc2ccc(F)c(-c3nc(C(OCC(=O)O)c4ccccc4)c[nH]3)c2)c(F)cc2[nH]ccc12 (stereo not shown) | DSLS NBD1/3D Human Stability delta-T (° C.) @ 100 (μM): A (T ≥8° C.)

The measured DSLS NBD1/3D Human Stability delta-T (° C.) @ 100 (μM) associated with CC(O)(c1ccccc1)c1cnc(-c2cccc(Sc3ccc4[nH]ccc4c3)c2)[nH]1 (stereo not shown) reads C (≤4° C.)
